assay: Solubility of solid quercetin mixed with liquids at room temperature (Example 3); type: physicochemical; details: 20 °C, aqueous with cosolvent or surfactant or cyclodextrin, thermodynamic from solid; Room temp; Red wine Cabernet-Sauvignon (F)
metric: solubility at 3 h (µg/mL)
Numbers only here, please. The scale is µg/mL.

Asked: Please report the recorded solubility at 3 h for O=c1c(O)c(-c2ccc(O)c(O)c2)oc2cc(O)cc(O)c12 [quercetin] .
Given back: 3

====

assay: physchem; assay type: physicochemical; conditions: aqueous with cosolvent or surfactant or cyclodextrin, thermodynamic from solid
metric: solubility at 1 min (µg/mL)
Please reply with the bare figure in µg/mL and do not write the unit itself.

Asked: For the molecule shown here, C[C@@H]1O[C@@H](OC[C@H]2O[C@@H](Oc3c(-c4ccc(O)c(O)c4)oc4cc(O)cc(O)c4c3=O)[C@H](O)[C@@H](O)[C@@H]2O)[C@H](O)[C@H](O)[C@H]1O [Rutin, quercetin 3β-D-rutinoside hydrate] , give the reported solubility at 1 min.
Given back: 260

Asked: Then what about the molecule C[C@@H]1O[C@@H](Oc2c(-c3ccc(O)c(O)c3)oc3cc(O)cc(O)c3c2=O)[C@H](O)[C@H](O)[C@H]1O [Quercitrin, quercetin 3-L-rhamnoside] ?
Given back: 316

Asked: Now consider O=c1c(O)c(-c2ccc(O)c(O)c2)oc2cc(O)cc(O)c12 .
Given back: 90

====

assay: Solubility of solid quercetin mixed with liquids at room temperature (Example 3); type: physicochemical; settings: 20 °C, thermodynamic from solid; Room temp; Water; OD 375 nm
metric: solubility at 3 h (µg/mL)
Field: numeric (µg/mL). Do not append units.

Asked: Any idea what solubility at 3 h was measured for O=c1c(O)c(-c2ccc(O)c(O)c2)oc2cc(O)cc(O)c12 [quercetin] ?
Given back: 0.3

====

assay: physchem; format: physicochemical; conditions: 20 °C, aqueous with cosolvent or surfactant or cyclodextrin, kinetic from dmso stock
metric: solubility

Asked: So what does the record say about solubility for O=c1c(O)c(-c2ccc(O)c(O)c2)oc2cc(O)cc(O)c12 ?
Given back: 13 µg/mL

====

test: Solubility of solid quercetin mixed with liquids at room temperature (Example 3); assay type: physicochemical; details: 20 °C, aqueous with cosolvent or surfactant or cyclodextrin, thermodynamic from solid; Room temp; Ethanol 12% v/v
metric: solubility at 3 h

Asked: // query solubility at 3 h value for entry O=c1c(O)c(-c2ccc(O)c(O)c2)oc2cc(O)cc(O)c12
Given back: 1 µg/mL

====

experiment: Solubilization of quercetin, quercitrin and rutin by heat in water, grape anthocyanin and malvin chloride solutions (Example 6); format: physicochemical; conditions: water, thermodynamic from solid
metric: solubility at 1 min (mg/mL)
A number alone suffices; assume mg/mL.

C[C@@H]1O[C@@H](Oc2c(-c3ccc(O)c(O)c3)oc3cc(O)cc(O)c3c2=O)[C@H](O)[C@H](O)[C@H]1O [Quercitrin, quercetin 3-L-rhamnoside] | 0.053
C[C@@H]1O[C@@H](OC[C@H]2O[C@@H](Oc3c(-c4ccc(O)c(O)c4)oc4cc(O)cc(O)c4c3=O)[C@H](O)[C@@H](O)[C@@H]2O)[C@H](O)[C@H](O)[C@H]1O [Rutin, quercetin 3β-D-rutinoside hydrate] | 0.036

Asked: Quick one: solubility at 1 min for O=c1c(O)c(-c2ccc(O)c(O)c2)oc2cc(O)cc(O)c12 ?
Given back: 0.002

====

Items are presented alongside their recorded solubility at 1 min.
experiment: physchem; type: physicochemical; details: pH 3, aqueous with cosolvent or surfactant or cyclodextrin, thermodynamic from solid
Output spec: scalar in µg/mL, unitless text.

The following molecules have reported results that may help.
C[C@@H]1O[C@@H](OC[C@H]2O[C@@H](Oc3c(-c4ccc(O)c(O)c4)oc4cc(O)cc(O)c4c3=O)[C@H](O)[C@@H](O)[C@@H]2O)[C@H](O)[C@H](O)[C@H]1O [Rutin, quercetin 3β-D-rutinoside hydrate] | 74
C[C@@H]1O[C@@H](Oc2c(-c3ccc(O)c(O)c3)oc3cc(O)cc(O)c3c2=O)[C@H](O)[C@H](O)[C@H]1O [Quercitrin, quercetin 3-L-rhamnoside] | 127

// next item, solubility at 1 min requested
Asked: I'd like to know its solubility at 1 min. The molecule in question is O=c1c(O)c(-c2ccc(O)c(O)c2)oc2cc(O)cc(O)c12
Given back: 28

====

assay: Solubility of solid quercetin in liquids after heating to boiling in microwave oven (Example 3); assay type: physicochemical; conditions: 20 °C, aqueous with cosolvent or surfactant or cyclodextrin, thermodynamic from solid; Boiling; Rosé D'Anjou (F)
metric: solubility at 1 min

Asked: Field request: solubility at 1 min | item: O=c1c(O)c(-c2ccc(O)c(O)c2)oc2cc(O)cc(O)c12
Given back: 9 µg/mL

====

assay: Solubility of solid quercetin mixed with liquids at room temperature (Example 3); type: physicochemical; conditions: 20 °C, aqueous with cosolvent or surfactant or cyclodextrin, thermodynamic from solid; Room temp; grape Anthocyanin powder 1 g/L in water
metric: solubility at 3 h (µg/mL)
Supply the numeric figure in µg/mL, leaving out any unit text.

Asked: Item under review: O=c1c(O)c(-c2ccc(O)c(O)c2)oc2cc(O)cc(O)c12 . Reported solubility at 3 h?
Given back: 0.7
